The following are reported IC50 results, target or system Xanthine dehydrogenase/oxidase (Bos taurus, UniProt P80457).

- compound: "O=C(/C=C/c1ccc(O)cc1)c1ccc(O)cc1 [4,4'-DIHYDROXYCHALCONE]"
  IC50 / µM: 117
- compound: "O=C(/C=C/c1ccc(O)cc1)c1cccc(O)c1"
  IC50 / µM: 133
- compound: "O=C(/C=C/c1cccc(O)c1)c1cccc(O)c1"
  IC50 / µM: 88.3
